STUDY TARGET: Tyrosine-protein phosphatase non-receptor type 11 (Homo sapiens)
Sequence (Q06124 whole entry): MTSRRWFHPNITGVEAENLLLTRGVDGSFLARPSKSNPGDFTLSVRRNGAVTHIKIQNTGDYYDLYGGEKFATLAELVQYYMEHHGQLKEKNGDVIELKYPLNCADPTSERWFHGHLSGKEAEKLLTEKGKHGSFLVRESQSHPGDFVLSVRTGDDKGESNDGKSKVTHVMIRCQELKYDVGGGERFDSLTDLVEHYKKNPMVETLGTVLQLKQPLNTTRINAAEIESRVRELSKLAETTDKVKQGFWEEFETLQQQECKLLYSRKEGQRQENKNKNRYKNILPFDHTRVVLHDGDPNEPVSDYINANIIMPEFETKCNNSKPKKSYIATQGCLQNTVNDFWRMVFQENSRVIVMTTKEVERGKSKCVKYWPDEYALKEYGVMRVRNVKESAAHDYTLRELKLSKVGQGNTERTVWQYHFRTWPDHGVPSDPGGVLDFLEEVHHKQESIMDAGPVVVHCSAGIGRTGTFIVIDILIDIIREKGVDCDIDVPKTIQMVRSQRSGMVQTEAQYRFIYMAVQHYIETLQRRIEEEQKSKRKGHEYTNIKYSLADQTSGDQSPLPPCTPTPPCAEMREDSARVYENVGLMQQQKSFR
METHOD NOTES: Allosteric inhibition of wild type SHP2 (unknown origin) assessed as dephosphorylation of DIFMUP by fluorescence based envision microplate reader analysis
PROPERTY LABEL: IC50

Task: Returns the measured IC50 for the input compound. Input: FC(F)(F)c1ncccc1Sc1cnc2[nH]c(N3CCCC4(CNCCO4)C3)nc2n1 (stereo unspecified)
Result: > 3.2 µM

The measured values listed here are drawn from ChEMBL document CHEMBL5625259.
